SYSTEM_UNDER_TEST: MMP-14CD (catalytic domain of MMP-14) (Homo sapiens, UniProt P50281)
TEST_NAME: Thiopeptolide substrate hydrolysis assay, MMP-14CD
Assay type: biochemical
MEASUREMENT_CONTEXT: HEPES pH 7.0, 22° C., read-out: IC50 (μM) Versus Certain MMPs: MMP-14 CD
Excerpt: The invention compounds of Formula I have been evaluated in standard assays for their ability to inhibit the catalytic activity of various MMP enzymes. Thiopeptolide substrates show virtually no decomposition or hydrolysis at or below neutral pH in the absence of a matrix metalloproteinase enzyme. Several representative compounds have been evaluated for their ability to inhibit various matrix metalloproteinase enzymes.
Where a name gives a salt, the structure may show the parent alone.
Parameter: IC50. Scope: all listed entries.

O=C(NCc1ccccc1)c1cn2c(=O)n(C(=O)c3ccccc3)c(=O)cc2s1	> 30 µM
COc1ccc(CNC(=O)c2cn3c(=O)n(Cc4ccccc4)c(=O)c(C=O)c3s2)cc1	> 30 µM
COC(=O)c1ccc(Cn2c(=O)c(C)c3sc(C(=O)NCc4cccc(F)c4)cn3c2=O)cc1	> 30 µM
COc1ccc(CNC(=O)c2cn3c(=O)n(Cc4ccc(C(=O)OCCN(C)C)cc4)c(=O)c(C)c3s2)cc1 [Example 57, hydrochloride]	> 30 µM
COc1ccc(CNC(=O)c2cn3c(=O)n(Cc4ccccc4)c(=O)c(C)c3s2)cc1F	> 100 µM

Proceeding to the next compound to report its IC50.
Request: Recorded IC50 for O=c1cc2sc(C(O)CCc3ccccc3)cn2c(=O)n1Cc1ccccc1 (stereo not shown) , please?
Response: > 100 µM

The reported measurements were obtained from patent US20060040957A1.
